# ASSAY SYSTEM: Replicase polyprotein 1ab (Severe acute respiratory syndrome coronavirus 2)
# METHOD: Inhibition of N-terminal hexa-histidine tagged recombinant SARS-CoV-2 nsp14 RNA cap N7-methyltransferase activity expressed in Escherichia coli C2566 using GpppAC4 synthetic RNA and [3H]-SAM as substrate incubated for 30 mins by filter binding assay based liquid scintillation counter analysis
PROPERTY: pIC50
Scale for pIC50: -log10 of concentration given in mol/L; no unit attached.

Form field: reported pIC50 of `N#Cc1ccc(S(=O)(=O)NCCS(=O)(=O)C[C@H]2O[C@@H](n3cnc4c(N)ncnc43)[C@H](O)[C@@H]2O)cc1` 4.28

Returns the measured pIC50 for the input molecule. Input: `Cc1ccc(S(=O)(=O)NCCSC[C@H]2O[C@@H](n3cnc4c(N)ncnc43)[C@H](O)[C@@H]2O)cc1` 5.66

Give its pIC50 value. Item: `Nc1ncnc2c1ncn2[C@@H]1O[C@H](CSCCNS(=O)(=O)c2ccccc2[N+](=O)[O-])[C@@H](O)[C@H]1O` 5.69

Would you kindly share the measured pIC50 for `Nc1ncnc2c1ncn2[C@@H]1O[C@H](CSCCNS(=O)(=O)c2ccc(Cl)cc2[N+](=O)[O-])[C@@H](O)[C@H]1O` ? 6.05

What value of measured pIC50 is listed for `Nc1ncnc2c1ncn2[C@@H]1O[C@H](CSCCNS(=O)(=O)c2ccc(C(F)(F)F)cc2)[C@@H](O)[C@H]1O` ? 5.14

GET /values?readout=pIC50&item= `Nc1ncnc2c1ncn2[C@@H]1O[C@H](CS(=O)(=O)CCNS(=O)(=O)c2ccccc2)[C@@H](O)[C@H]1O` 4.63

Find the recorded pIC50 belonging to `Nc1ncnc2c1ncn2[C@@H]1O[C@H](CS(=O)(=O)CCNS(=O)(=O)c2ccc(C(F)(F)F)cc2)[C@@H](O)[C@H]1O` and report it. 4.42

Which pIC50 is reported for this molecule? `Nc1ncnc2c1ncn2[C@@H]1O[C@H](CSCCNS(=O)(=O)c2ccc([N+](=O)[O-])cc2)[C@@H](O)[C@H]1O` 5.33

Can you share its pIC50? I mean this molecule: `Cc1ccc(S(=O)(=O)NCCS(=O)(=O)C[C@H]2O[C@@H](n3cnc4c(N)ncnc43)[C@H](O)[C@@H]2O)cc1` 4.31

Item under review: `N#Cc1ccc(S(=O)(=O)NCCSC[C@H]2O[C@@H](n3cnc4c(N)ncnc43)[C@H](O)[C@@H]2O)cc1` . Reported pIC50? 4.81

Name the recorded pIC50 for `Nc1ncnc2c1ncn2[C@@H]1O[C@H](CS(=O)(=O)CCNS(=O)(=O)c2ccc([N+](=O)[O-])cc2)[C@@H](O)[C@H]1O` . 4.56

I'd like to know its pIC50. The molecule in question is `Nc1ncnc2c1ncn2[C@@H]1O[C@H](CSCCNS(=O)(=O)c2ccccc2)[C@@H](O)[C@H]1O` 5.34

Param item = `COc1ccc(S(=O)(=O)NCCSC[C@H]2O[C@@H](n3cnc4c(N)ncnc43)[C@H](O)[C@@H]2O)c([N+](=O)[O-])c1` ; retrieve measured pIC50. 6.05
